target: recombinant human SAE enzyme (Homo sapiens, UniProt Q9UBT2); experiment: SAE HTRF Enzyme Assay; type: biochemical; settings: compound concentration 0.111 μM; read-out: Percent Inhibition
Sequence (Q9UBT2 whole entry): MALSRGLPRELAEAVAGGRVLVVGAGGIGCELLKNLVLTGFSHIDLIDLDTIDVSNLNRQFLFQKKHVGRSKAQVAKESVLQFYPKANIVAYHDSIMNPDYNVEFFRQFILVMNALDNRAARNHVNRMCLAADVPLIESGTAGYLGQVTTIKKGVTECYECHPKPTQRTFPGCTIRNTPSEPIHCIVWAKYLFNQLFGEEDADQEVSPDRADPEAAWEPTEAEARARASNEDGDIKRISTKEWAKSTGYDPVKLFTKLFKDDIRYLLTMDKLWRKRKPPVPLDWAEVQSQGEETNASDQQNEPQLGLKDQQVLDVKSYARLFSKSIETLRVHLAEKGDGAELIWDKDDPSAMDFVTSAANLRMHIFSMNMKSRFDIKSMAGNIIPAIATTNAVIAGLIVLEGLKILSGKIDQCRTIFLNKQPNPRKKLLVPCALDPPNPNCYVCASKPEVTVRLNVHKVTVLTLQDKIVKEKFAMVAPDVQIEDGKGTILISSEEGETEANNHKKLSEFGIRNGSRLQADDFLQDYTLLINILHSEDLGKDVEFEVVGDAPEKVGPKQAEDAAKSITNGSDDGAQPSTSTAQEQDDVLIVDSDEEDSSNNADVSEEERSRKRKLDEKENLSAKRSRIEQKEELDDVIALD
Sequence (Q9UBE0 whole entry partner): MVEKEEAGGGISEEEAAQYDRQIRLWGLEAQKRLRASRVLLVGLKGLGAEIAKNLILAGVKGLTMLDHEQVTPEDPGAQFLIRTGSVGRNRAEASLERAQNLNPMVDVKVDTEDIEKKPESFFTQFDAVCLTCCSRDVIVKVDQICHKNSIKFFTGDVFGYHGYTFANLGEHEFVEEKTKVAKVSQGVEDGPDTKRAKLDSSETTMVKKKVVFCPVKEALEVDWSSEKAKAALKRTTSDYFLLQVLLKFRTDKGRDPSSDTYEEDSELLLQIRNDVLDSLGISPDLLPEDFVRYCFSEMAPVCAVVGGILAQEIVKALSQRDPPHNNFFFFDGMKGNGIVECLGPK
Measured property: inhibition at 0.111 µM (%)
Hi! Could you send only the number? It should be in %, unit omitted.

Challenge: Dear colleague, please send me the reported inhibition at 0.111 µM for COCc1cc(C(=O)c2cncnc2N[C@@H]2C[C@H](COS(N)(=O)=O)[C@@H](O)C2)nn1Cc1cccc(Br)c1 [Compound I-368] when you can.
Response given: 98

Challenge: Hello, please tell me recorded inhibition at 0.111 µM for this one: CSCn1ccc(C(=O)c2cncnc2N[C@@H]2C[C@H](COS(N)(=O)=O)[C@@H](O)C2)n1 [Compound I-281]
Response given: 25

Challenge: Tell us which inhibition at 0.111 µM value is on record for NS(=O)(=O)OC[C@H]1C[C@@H](Nc2ncncc2C(=O)c2ccn(Cc3cc4ccccc4s3)c2)[C@@H](F)[C@@H]1O [Compound I-322]
Response given: 99

Challenge: Report inhibition at 0.111 µM, nothing else, for this compound: NS(=O)(=O)OC[C@H]1C[C@@H](Nc2ncncc2C(=O)c2ccn(/C=C\c3ccccc3)c2)C[C@@H]1O [Compound I-200]
Response given: 98

Challenge: Specify reported inhibition at 0.111 µM for the compound shown: NS(=O)(=O)OC[C@H]1C[C@@H](Nc2ncncc2C(=O)c2ccn(Cc3ccc(F)cc3F)n2)C[C@@H]1O [Compound I-62]
Response given: 96

Challenge: Supply measured inhibition at 0.111 µM of CC#CC(C)n1ccc(C(=O)c2cncnc2N[C@@H]2C[C@H](COS(N)(=O)=O)[C@@H](O)C2)n1 (single isomer, unassigned) [Compound I-362] in your reply.
Response given: 52

Challenge: Answer with the recorded inhibition at 0.111 µM for the compound listed here: NS(=O)(=O)OC[C@H]1C[C@@H](Nc2ncncc2C(=O)c2ccn(C3C=CCCC3)n2)C[C@@H]1O (mixture of isomers) [Compound I-302]
Response given: 34

Challenge: Answer with the recorded inhibition at 0.111 µM for the compound listed here: NS(=O)(=O)OC[C@H]1C[C@@H](Nc2ncncc2C(=O)c2ccn(Cc3ccc(C(F)(F)F)c(F)c3)n2)[C@H](O)[C@@H]1O [Compound I-46]
Response given: 96

Challenge: Please give the documented inhibition at 0.111 µM of NS(=O)(=O)OC[C@H]1C[C@@H](Nc2ncncc2C(=O)c2ccn(Cc3ccc(Cl)c(Cl)c3)c2)[C@@H](F)[C@@H]1O [Compound I-331]
Response given: 99

Challenge: Given NS(=O)(=O)OC[C@H]1C[C@@H](Nc2ncncc2C(=O)c2ccn(Cc3ccc(F)c(OC(F)(F)F)c3)n2)[C@H](O)[C@@H]1O [Compound I-134] , respond with its inhibition at 0.111 µM.
Response given: 98

Challenge: Give the reported inhibition at 0.111 µM for this compound. NS(=O)(=O)OC[C@H]1C[C@@H](Nc2ncncc2C(=O)c2ccn(CC3CC3)n2)[C@H](O)[C@@H]1O [Compound I-30]
Response given: 66

Challenge: State its inhibition at 0.111 µM for this compound: NS(=O)(=O)OC[C@H]1C[C@@H](Nc2ncncc2C(=O)c2ccn(Cc3ccc(F)cc3F)n2)[C@H](O)[C@@H]1O [Compound I-336]
Response given: 97
